PROTOCOL: in vivo
PARTICULARS: both, ICR, mouse, iv
Where a name gives a salt, the structure may show the parent alone.
PARAMETER_MEASURED: LD50 (mg/kg)
Expressed in mg/kg, but write only the number.

Q) Please give the documented LD50 of COc1ccnc(C[S+]([O-])c2nc3cc(OC(F)F)ccc3[n]2[Na+])c1OC (stereo not shown) [Example 1, sodium salt]
A) 392

----------
PROTOCOL: acute toxicity test in Beagle dogs
Assay type: in vivo
PARTICULARS: dog, in vivo, doses 44-225 mg/kg
Structures can show the parent of a compound that is named as a salt.
PARAMETER_MEASURED: LD50 (mg/kg)
Expressed in mg/kg, but write only the number.

Q) Please give the documented LD50 of COc1ccnc(C[S+]([O-])c2nc3cc(OC(F)F)ccc3[n]2[Na+])c1OC (stereo not shown) [Example 1, sodium salt]
A) 70
